biological target: HER2 (Homo sapiens, UniProt P04626); assay: Biacore SPR binding to immobilised HER2; details: immobilised HER2
Attribute measured: log10 association rate (log10 of the value in M⁻¹ s⁻¹)
Please interpret these as log10 of association rate where association rate is in M⁻¹ s⁻¹.

Some solved entries appear below for comparison.
scFv (TCT1067)-DM1-dPEG12 DAR 7 (conjugate) scFv: SGSGGSGQVQLVQSGAEVKKPGESLKISCKGSGYSFTSYWIAWVRQMPGKGLEYMGLIYPGDSDTKYSPSFQGQVTISVDKSVSTAYLQWSSLKPSDSAVYFCARHDVGYCTDRTCAAWPEWLGVWGQGTLVTVSSGGGGSGGGGSGGGGSQSVLTQPPSVSAAPGQKVTISCSGSSSNIGNNYVSWYQQLPGTAPKLLIYGHTNRPAGVPDRFSGSKSGTSASLAISGFRSEDEADYYCASWDYTLSGWVFGGGTKLTVLMASMTGGQQMG    4.29
scFv (TCT1067)-DM1-dPEG12 DAR 8 (conjugate) scFv: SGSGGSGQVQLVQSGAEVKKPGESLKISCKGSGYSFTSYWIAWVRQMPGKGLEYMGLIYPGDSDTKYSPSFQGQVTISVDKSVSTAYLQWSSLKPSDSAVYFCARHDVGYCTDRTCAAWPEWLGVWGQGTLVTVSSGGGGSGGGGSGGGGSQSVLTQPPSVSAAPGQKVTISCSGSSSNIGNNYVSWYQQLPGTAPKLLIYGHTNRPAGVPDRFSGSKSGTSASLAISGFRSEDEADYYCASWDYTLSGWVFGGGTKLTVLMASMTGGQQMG    4.12
scFv (TCT)-Acetate DAR 15 (conjugate) scFv: SGSGGSGQVQLVQSGAEVKKPGESLKISCKGSGYSFTSYWIAWVRQMPGKGLEYMGLIYPGDSDTKYSPSFQGQVTISVDKSVSTAYLQWSSLKPSDSAVYFCARHDVGYCSSSNCAAWPEYFQHWGQGTLVTVSSGGGGSGGGGSGGGGSQSVLTQPPSVSAAPGQKVTISCSGSSSNIGNNYVSWYQQLPGTAPKLLIYGHTNRPAGVPDRFSGSKSGTSASLAISGFRSEDEADYYCAAWDDSLSGWVFGGGTKLTVLMASMTGGQQMG    6.77
scFv (TCT)-MMAF-C5 DAR 6.8 (conjugate) scFv: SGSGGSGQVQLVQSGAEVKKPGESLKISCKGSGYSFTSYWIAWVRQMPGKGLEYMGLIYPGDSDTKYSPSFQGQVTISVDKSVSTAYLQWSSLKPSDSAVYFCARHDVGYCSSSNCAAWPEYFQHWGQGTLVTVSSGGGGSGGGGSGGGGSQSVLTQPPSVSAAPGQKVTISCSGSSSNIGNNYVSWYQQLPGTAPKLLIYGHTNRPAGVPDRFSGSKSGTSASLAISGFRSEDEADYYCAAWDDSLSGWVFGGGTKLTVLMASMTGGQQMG    6.08
scFv (TCT): anti-HER2 scFv: Tev cleavage site, C6.5, T7 tag; SEQ ID NO: 2 (protein, Amino Acid sequence of cleaved TCT) scFv: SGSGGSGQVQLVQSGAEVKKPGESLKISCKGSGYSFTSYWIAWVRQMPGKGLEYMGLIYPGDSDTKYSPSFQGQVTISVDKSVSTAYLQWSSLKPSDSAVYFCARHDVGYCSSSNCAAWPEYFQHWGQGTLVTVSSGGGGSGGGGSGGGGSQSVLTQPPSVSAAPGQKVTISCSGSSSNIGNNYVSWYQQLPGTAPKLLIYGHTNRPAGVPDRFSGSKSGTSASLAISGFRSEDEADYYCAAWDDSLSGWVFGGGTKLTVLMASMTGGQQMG    6.45

Output log10 association rate of scFv (TCT)-MMAF-C5 1 DAR 5.6 (conjugate) scFv: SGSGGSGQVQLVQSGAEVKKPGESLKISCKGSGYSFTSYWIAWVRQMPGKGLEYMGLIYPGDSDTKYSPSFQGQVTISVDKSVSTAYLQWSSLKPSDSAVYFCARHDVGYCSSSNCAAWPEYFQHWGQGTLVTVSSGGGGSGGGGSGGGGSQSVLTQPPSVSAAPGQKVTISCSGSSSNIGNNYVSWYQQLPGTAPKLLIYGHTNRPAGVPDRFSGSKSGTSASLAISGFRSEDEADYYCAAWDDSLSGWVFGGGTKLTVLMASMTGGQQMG 5.89

Identify the reported log10 association rate for the following entry. scFv (TCT1067)-Auristatin-F-C5 DAR 11.9 (conjugate) scFv: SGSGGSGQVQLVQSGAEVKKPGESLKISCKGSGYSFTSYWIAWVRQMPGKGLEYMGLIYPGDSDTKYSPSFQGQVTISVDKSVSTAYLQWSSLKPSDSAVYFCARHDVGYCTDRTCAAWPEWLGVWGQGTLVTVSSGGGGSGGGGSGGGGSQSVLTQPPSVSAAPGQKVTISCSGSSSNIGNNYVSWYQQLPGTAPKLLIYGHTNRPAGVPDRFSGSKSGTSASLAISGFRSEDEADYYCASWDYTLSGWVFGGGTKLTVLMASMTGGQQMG 4.34
